Kindly supply the reported Rape plant response rating values for the records listed here.
Tested on: rape
experiment description: Test B pre/postemergence rape
Format: in vivo, Brassica napus
run conditions: Rate 250 g/ha, Postemergence; scale 0 to 10, 0 is no effect, 10 is complete control
// return just the number, without any unit appended

Value of Rape plant response rating reported for the compound Cc1nc(C(C)n2c(=O)on(C(=O)N(c3ccc(F)cc3)C(C)C)c2=O)sc1C (stereo not shown) [Compound 757] is 0

Value of Rape plant response rating reported for the compound C#CCn1c(=O)on(C(=O)N(c2ccccc2)C(C)C)c1=O [Compound 754] is 0

Value of Rape plant response rating reported for the compound CC(C)N(C(=O)n1oc(=O)n(CC(F)F)c1=O)c1ccc(F)cc1 [Compound 710] is 3

Value of Rape plant response rating reported for the compound CC(=O)OCC(CCl)n1c(=O)on(C(=O)N(c2ccc(F)cc2F)C(C)C)c1=O (racemic) [Compound 708] is 0

###

Tested on: giant foxtail
experiment description: Test B pre/postemergence giant foxtail
Assay type: in vivo, Setaria faberii
run conditions: Postemergence, Rate 500 g/ha; scale of 0 to 10 where 0 is no effect and 10 is complete control
Kindly supply the reported Giant foxtail plant response rating values for the records listed here.
// return just the number, without any unit appended

# value of Giant foxtail plant response rating, giant foxtail, item CC(C)N(C(=O)n1oc(=O)n(C(C)Cl)c1=O)c1ccccc1 (stereo not drawn) [Compound 438] = 9

# value of Giant foxtail plant response rating, giant foxtail, item CC(C)N(C(=O)n1oc(=O)n(CC(=O)N(C)C)c1=O)c1ccc(Cl)cc1 [Compound 477] = 7

# value of Giant foxtail plant response rating, giant foxtail, item CC(C)N(C(=O)n1oc(=O)n(CCC#N)c1=O)c1ccc(F)cc1 [Compound 388] = 9

# value of Giant foxtail plant response rating, giant foxtail, item CCCCCCn1c(=O)on(C(=O)N(c2ccc(F)cc2)C(C)C)c1=O [Compound 389] = 8

# value of Giant foxtail plant response rating, giant foxtail, item CC(C)N(C(=O)n1oc(=O)n(CC2=NOCC2)c1=O)c1ccc(F)cc1 [Compound 466] = 9

# value of Giant foxtail plant response rating, giant foxtail, item CC(C)N(C(=O)n1oc(=O)n(CCl)c1=O)c1ccccc1 [Compound 423] = 2

###

System: crabgrass
experiment description: Test B pre/postemergence crabgrass
Type: in vivo, Digitaria sanguinalis
run conditions: Rate 62 g/ha, Postemergence; scale 0 to 10 (0 no effect, 10 complete control)
Kindly supply the reported Crabgrass plant response rating values for the records listed here.
// return just the number, without any unit appended

# value of Crabgrass plant response rating, crabgrass, item `Cc1ccc(N(C(=O)n2oc(=O)n(-c3ccc4ccccc4c3)c2=O)C(C)C)cc1` = 0

# value of Crabgrass plant response rating, crabgrass, item `CC(C)N(C(=O)n1oc(=O)n(CC(=O)N(C)C)c1=O)c1ccc(Cl)cc1` = 1

# value of Crabgrass plant response rating, crabgrass, item `CC(C)N(C(=O)n1oc(=O)n(-c2ccc3ccccc3c2)c1=O)c1ccc(F)cc1` = 0

# value of Crabgrass plant response rating, crabgrass, item `Cc1ccccc1-n1c(=O)on(C(=O)N(c2ccc(OC(F)(F)F)cc2)C(C)C)c1=O` = 0

# value of Crabgrass plant response rating, crabgrass, item `CC(C)N(C(=O)n1oc(=O)n(CC(=O)C2CC2)c1=O)c1ccccc1` = 2
